Provide the recorded MBC for the entries that follow.
# Test system: Borrelia garinii
# test: Antimicrobial activity against Borrelia garinii isolate PSth after 72 hrs by colorimetric assay
# Assay type: functional
# stated-conditions: Borreliella garinii

CC1(C)S[C@@H]2[C@H](NC(=O)[C@H](N)c3ccc(O)cc3)C(=O)N2[C@H]1C(=O)O    8 µg/mL
CC[C@H]1OC(=O)[C@H](C)[C@@H](O[C@H]2C[C@@](C)(OC)[C@@H](O)[C@H](C)O2)[C@H](C)[C@@H](O[C@@H]2O[C@H](C)C[C@H](N(C)C)[C@H]2O)[C@](C)(OC)C[C@@H](C)C(=O)[C@H](C)[C@@H](O)[C@]1(C)O    2 µg/mL
CO/N=C(\C(=O)N[C@@H]1C(=O)N2C(C(=O)O)=C(COC(N)=O)CS[C@H]12)c1ccco1    > 8 µg/mL
C[C@H]1c2cccc(O)c2C(=O)C2=C(O)[C@]3(O)C(=O)C(C(N)=O)=C(O)[C@@H](N(C)C)[C@@H]3[C@@H](O)[C@@H]21.O    32 µg/mL
CO/N=C(\C(=O)N[C@@H]1C(=O)N2C(C(=O)O)=C(CSc3nc(=O)c(O)nn3C)CS[C@H]12)c1csc(N)n1    2 µg/mL

For the next question, use this molecule.
I am curious: what MBC value has been reported for `CC[C@H]1OC(=O)[C@H](C)[C@@H](O[C@H]2C[C@@](C)(OC)[C@@H](O)[C@H](C)O2)[C@H](C)[C@@H](O[C@@H]2O[C@H](C)C[C@H](N(C)C)[C@H]2O)[C@](C)(O)C[C@@H](C)C(=O)[C@H](C)[C@@H](O)[C@]1(C)O` ?
4 µg/mL

###

# System: Borrelia afzelii
# test: Antimicrobial activity against Borrelia afzelii isolate G1039 after 72 hrs by colorimetric assay
# Format: functional
# stated-conditions: Borreliella afzelii, isolate G1039, 72 h
observed-property: MIC (µg/mL)
One number for each entry, in µg/mL.

Solved cases below.
CC[C@H]1OC(=O)[C@H](C)[C@@H](O[C@H]2C[C@@](C)(OC)[C@@H](O)[C@H](C)O2)[C@H](C)[C@@H](O[C@@H]2O[C@H](C)C[C@H](N(C)C)[C@H]2O)[C@](C)(O)C[C@@H](C)C(=O)[C@H](C)[C@@H](O)[C@]1(C)O [ERYTHROMYCIN]    0.0156
CO/N=C(\C(=O)N[C@@H]1C(=O)N2C(C(=O)O)=C(CSc3nc(=O)c(O)nn3C)CS[C@H]12)c1csc(N)n1 [CEFTRIAXONE]    0.0312

For the next question, use this molecule.
I am curious: what MIC value has been reported for C[C@H]1c2cccc(O)c2C(=O)C2=C(O)[C@]3(O)C(=O)C(C(N)=O)=C(O)[C@@H](N(C)C)[C@@H]3[C@@H](O)[C@@H]21.O [DOXYCYCLINE] ?
0.125

###

# Tested on: Borrelia afzelii
# test: Antimicrobial activity against Borrelia afzelii isolate G1039 after 72 hrs by colorimetric assay
# Assay type: functional
# stated-conditions: Borreliella afzelii, isolate G1039, 72 h
Provide the recorded MIC for the entries that follow.
Your reply should be a number followed by the unit it is expressed in.

CC1(C)S[C@@H]2[C@H](NC(=O)[C@H](N)c3ccc(O)cc3)C(=O)N2[C@H]1C(=O)O [AMOXICILLIN]    0.5 µg/mL
CC[C@H]1OC(=O)[C@H](C)[C@@H](O[C@H]2C[C@@](C)(OC)[C@@H](O)[C@H](C)O2)[C@H](C)[C@@H](O[C@@H]2O[C@H](C)C[C@H](N(C)C)[C@H]2O)[C@](C)(OC)C[C@@H](C)C(=O)[C@H](C)[C@@H](O)[C@]1(C)O [CLARITHROMYCIN]    0.0039 µg/mL

I am curious: what MIC value has been reported for CO/N=C(\C(=O)N[C@@H]1C(=O)N2C(C(=O)O)=C(COC(N)=O)CS[C@H]12)c1ccco1 [CEFUROXIME] ?
0.125 µg/mL
